The values you see were collected from PubChem BioAssay.

Experiment: splicing luciferase reporter signal modulators, primary screen, spliceosome inhibition project, cell-based, HEK293, splice +/- reporter (AID 1101);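 further: HEK293 cells carrying a splicing-competent luciferase reporter gene; test concentration not given here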
Details: luminescence, 24 h, higher = more signal, called active from +8 up or from −8 down
The reader will find reported z-score values listed item by item below.
Please reply with the number alone, leaving off any unit.

Give the measured z-score for `CC(CCN1CCCc2nc(C)c(C)cc21)=NO[C@H](C)c1cn([C@H](CO)Cc2ccccc2)nn1`
0.407

Give the measured z-score for `COc1ccc(O[C@H]2C=C[C@@H](c3ccccc3)O[C@@H]2COC(=O)CCC(C)=NOC[C@@H](O)COCc2ccco2)cc1`
-0.909

Give the measured z-score for CCOC(=O)[C@H](CC(C)C)NC(=O)CCC1CC(OC(=O)NCc2ccc3c(c2)OCO3)CC2(CCCC(COC(=O)NCc3ccccc3)O2)O1 (stereo partly specified)
-0.403

Give the measured z-score for CCOC(=O)[C@H](CC(C)C)NC(=O)CCC1CC(OC(=O)NCCc2ccc(F)cc2)CC2(CCCC(COC(=O)NCc3cccc4ccccc34)O2)O1 (stereo partly specified)
-1.61

Give the measured z-score for CCOC(=O)[C@H](Cc1ccccc1)NC(=O)CCC1CC(OC(=O)NCc2ccc3c(c2)OCO3)CC2(CCCC(COC(=O)NCCc3ccc(Cl)cc3)O2)O1 (stereo partly specified)
-2.3

Give the measured z-score for `CO[C@@H]1C=CCC(=O)N[C@@H](C)C(=O)OC[C@@H](OC)[C@H](C)C=CCC(=O)OC[C@H]1C`
0.175

---

Assay: mitochondrial membrane potential change in A549 cells, profiling panel, cell-based, JC-1 fluorescence, basal, 24 h, 100 nL (AID 1138);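 further: A549 lung adenocarcinoma cells under basal conditions with no added stimulus; test concentration not given here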
Settings: higher = more signal
The reader will find reported z-score values listed item by item below.
Please reply with the number alone, leaving off any unit.

# annotated cases, reported z-score shown
Give the measured z-score for `CC(CCN1CCCc2nc(C)c(C)cc21)=NOC[C@@H](O)COCc1ccco1`
0.694

Give the measured z-score for `CC(C)(C)N1C(=O)[C@H]2[C@H]3[C@H](O)[C@H](O)CC(=NNC(=O)OCc4ccccc4)[C@@H]3CC[C@H]2C1=O`
-0.202

---
Give the measured z-score for `COCC#Cc1ccc([C@@H]2N[C@H](C(=O)O)CC[C@H]2C)cc1`
2.23

Give the measured z-score for `O=C1[C@H]2[C@H]3[C@H](O)[C@H](O)CC(=NOCc4ccccc4)[C@@H]3CC[C@H]2C(=O)N1c1cccc(Oc2ccccc2)c1`
0.578

Give the measured z-score for `CC(C)=CCCC(C)=CCON=C1C[C@@H](O)[C@@H](O)[C@@H]2[C@@H]3C(=O)N(c4cccc(Oc5ccccc5)c4)C(=O)[C@@H]3CC[C@H]12`
-0.137

Give the measured z-score for `COC(=O)[C@@H]1CC[C@H](C)[C@@H](c2ccc(C)cc2)N1C(=O)c1ccc(C=NOC[C@H]2O[C@H](c3ccccc3)C=C[C@@H]2Oc2ccc(OC)cc2)cc1`
-0.351

Give the measured z-score for `CC1(C)O[C@H]2O[C@H]([C@H](O)CON=C3[C@H]4CCn5c(=O)n(-c6ccccc6)c(=O)n5[C@H]4[C@H](O)[C@@H]4O[C@H]34)[C@H](O)[C@H]2O1`
-0.994

Give the measured z-score for COC(=O)[C@H](C)NC(=O)CCC1CC(OC(=O)NCc2cccc3ccccc23)CC2(CCCC(COC(=O)NCc3cccc(C(F)(F)F)c3)O2)O1 (some centres undefined)
1.43

Give the measured z-score for `O=C1[C@H]2CCn3c(=O)n(-c4ccccc4)c(=O)n3[C@H]2[C@H](O)[C@@H]2O[C@H]12`
0.718
